Below: a set of entries, each annotated with reported koff.
- TARGET_OR_TEST_SYSTEM: T1, human ERBB3 His tagged, monomeric (human, UniProt P21860 20-643, biotinylated in the Alphascreen assays (sites not given))
- T1 construct: Used unbiotinylated as Biacore analyte and biotinylated in Alphascreen; treated as one molecule; also called human ERBB3-His (Acrobiosystems); biotinylated monomeric human ERBB3
- PROTOCOL: SPR (Biacore), captured IgG, monomeric ERBB3-His analyte
Write the answer as a number in s⁻¹, unit excluded.

Example binders with recorded koff:
{"BINDER": "17H10 IgG1null (antibody, V domains shown, Human IgG1null and human Ckappa) VH: QVQLVESGGGLVKPGGSLRLSCAASGFTFSDYGMSWIRQAPGKGLEWVSTISDGGSYTYYADSVKGRFTISRDNAKNSLYLQMNSLRAEDTAVYYCAREWGDYDGFDEWGQGTLVTVSS VL: DIQMTQSPSSLSASVGDRVTITCRASQSISGYLSWYQQKPGKAPKLLIYAASTLQSGVPSRFSGSGSGTDFTLTISSLQPEDFATYYCLQYDSTPYTFGGGTKVEIK", "koff, s⁻¹": 0.0017}
{"BINDER": "TTP IgG1null (antibody, V domains shown, Designer clone; Human IgG1null and human Ckappa; also called Total Theoretically Possible clone) VH: QVQLVESGGGLVKPGGSLRLSCAASGFTFSDYGMSWIRQAPGKGLEWVSTISDSGSTIYYADSVKGRFTISRDNAKNSLYLQMNSLRAEDTAVYYCAREYGDYDGFDYWGQGTLVTVSS VL: DIQMTQSPSSLSASVGDRVTITCRASQSISSYLNWYQQKPGKAPKLLIYAASSLQSGVPSRFSGSGSGTDFTLTISSLQPEDFATYYCLQYDSTPLTFGGGTKVEIK", "koff, s⁻¹": 0.073}

Now look at this one.
-- ask What value of koff has been recorded for this entry: 09D12 IgG1null (antibody, V domains shown, Human IgG1null and human Ckappa) VH: QVQLVESGGGLVKPGGSLRLSCAASGFTFSDYGMSWIRQAPGKGLEWVSTISDGGSYTYYADSVKGRFTISRDNAKNSLYLQMNSLRAEDTAVYYCAREYGDYDGFDYWGQGTLVTVSS VL: DIQMTQSPSSLSASVGDRVTITCRASQSISSYLNWYQQKPGKAPKLLIYAASSLDSGVPSRFSGSGSGTDFTLTISSLQPEDFATYYCLQYDSTPLTFGGGTKVEIK
-- reply 0.0035
